assay: Half life in rat at 3 mg/kg, po; settings: in vivo
valueType: half-life (h)

Cn1ccc(-c2cc(Cl)c(Cl)c3[nH]c4c(c23)CN(C(=O)CO)CC4)n1    1.31
O=C(CO)N1CCC2(CCc3[nH]c4c(Cl)c(Cl)cc(-c5ccnc(C(F)(F)F)c5)c4c3C2)C1 (configuration not stated)    1.82

====

molecular target: Cyclic GMP-AMP synthase (Mus musculus); assay: Inhibition of cGAS in mouse RAW-Lucia ISG cells preincubated for 1 hr followed by cGAMP addition and measured after 24 hrs by luminescence based QUANTI-Luc assay
Sequence (Q8C6L5 whole entry): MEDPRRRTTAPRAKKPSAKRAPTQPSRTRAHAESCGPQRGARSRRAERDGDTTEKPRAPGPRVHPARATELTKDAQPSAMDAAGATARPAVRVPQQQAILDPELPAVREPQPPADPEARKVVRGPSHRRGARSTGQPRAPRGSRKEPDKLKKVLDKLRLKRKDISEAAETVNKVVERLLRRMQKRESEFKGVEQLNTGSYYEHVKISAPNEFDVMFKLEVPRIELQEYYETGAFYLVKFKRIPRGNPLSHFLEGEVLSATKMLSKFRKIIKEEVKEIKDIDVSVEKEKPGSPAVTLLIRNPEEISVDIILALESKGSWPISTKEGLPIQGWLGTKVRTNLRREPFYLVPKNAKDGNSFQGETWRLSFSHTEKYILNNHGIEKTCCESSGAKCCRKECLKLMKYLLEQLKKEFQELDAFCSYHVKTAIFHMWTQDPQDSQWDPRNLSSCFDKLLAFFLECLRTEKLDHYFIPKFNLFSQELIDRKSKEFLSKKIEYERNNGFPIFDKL
valueType: IC50 (µM)

// below: answered compounds
O=C(CO)N1CCC2(CCc3[nH]c4c(Cl)c(Cl)cc(-c5ccnc(C(F)(F)F)c5)c4c3C2)C1 (centres undefined)    11.4
Cn1ccc(-c2cc(Cl)c(Cl)c3[nH]c4c(c23)CC2(CC4)CCN(C(=O)CO)C2)n1 (centres undefined)    8.91

a: O=C(CO)N1CCC2(CCc3[nH]c4c(Cl)c(Cl)cc(-c5cnn(C(F)F)c5)c4c3C2)C1 (centres undefined)
b: Nc1cc(-c2cc(Cl)c(Cl)c3[nH]c4c(c23)CC2(CC4)CCN(C(=O)CO)C2)ccn1 (centres undefined)
Task: Compare the recorded IC50 of a and b ; state which is larger. Write the label of whichever entry you select.
Result: a
